Overview of reported hemolysis at 0.5 h, 64 ug/ml across a group of compounds:
- assay: Hemolytic activity against human erythrocytes assessed as induction of hemolysis at 64 ug/ml after 30 mins
- Format: cell-based, Erythrocyte
- conditionContext: read-out: Activity

| structureAsSmiles | hemolysis at 0.5 h, 64 ug/ml |
| --- | --- |
| N=C(N)NCCCCCCCCNCCCCCCCCNC(=N)NCC1CC1 | 0 to 7% |
| N=C(NCCCCCCCCN(CCCCCCCCNC(=N)NCC1CC1)C(=O)N(CCCCCCCCNC(=N)NCC1CC1)CCCCCCCCNC(=N)NCC1CC1)NCC1CC1 | 0 to 7% |
| N=C(N)NCCCCCCCCCCN(CCCCCCCCCCNC(=N)NCC1CC1)C(=O)N(CCCCCCCCCCNC(=N)N)CCCCCCCCCCNC(=N)NCC1CC1 | 41 to 54% |
| N=C(N)NCCCCCCCCN(CCCCCCCCNC(=N)NCC1CC1)C(=O)N(CCCCCCCCNC(=N)N)CCCCCCCCNC(=N)NCC1CC1 | 0 to 7% |
| N=C(N)NCCCCCCCCN(CCCCCCCCNC(=N)N)C(=O)N(CCCCCCCCNC(=N)N)CCCCCCCCNC(=N)N | 0 to 7% |

====

- Test system: Acinetobacter baumannii
- assay: Antibacterial activity against Acinetobacter baumannii isolate AC-54/97 after 18 hrs by microdilution broth method
- Assay type: functional
- conditionContext: isolate AC-54/97, 18 h

| structureAsSmiles | measurementTarget | MIC |
| --- | --- | --- |
| CCNC(=N)NCCCCCCCCN(CCCCCCCCNC(=N)NCC)C(=O)N(CCCCCCCCNC(=N)NCC)CCCCCCCCNC(=N)NCC | Acinetobacter baumannii | 8 µg/mL |
| CC(C)(C)OC(=O)/N=C(/NCCCCCCCCN(CCCCCCCCN/C(=N/C(=O)OC(C)(C)C)NC(=O)OC(C)(C)C)C(=O)N(CCCCCCCCN/C(=N/C(=O)OC(C)(C)C)N(CC1CC1)C(=O)OC(C)(C)C)CCCCCCCCN/C(=N/C(=O)OC(C)(C)C)N(CC1CC1)C(=O)OC(C)(C)C)NC(=O)OC(C)(C)C | Acinetobacter baumannii | ≥ 256 µg/mL |
| CNC(=N)NCCCCCCCCN(CCCCCCCCNC(=N)N)C(=O)N(CCCCCCCCNC(=N)N)CCCCCCCCNC(=N)NC | Acinetobacter baumannii | 4 µg/mL |
| N=C(N)NCCCCCCCCN(CCCCCCCCNC(=N)NCC1CC1)C(=O)N(CCCCCCCCNC(=N)N)CCCCCCCCNC(=N)NCC1CC1 | Acinetobacter baumannii | 2 µg/mL |
| N=C(NCCCCCCCCN(CCCCCCCCNC(=N)NCC1CC1)C(=O)N(CCCCCCCCNC(=N)NCC1CC1)CCCCCCCCNC(=N)NCC1CC1)NCC1CC1 | Acinetobacter baumannii | 8 µg/mL |

====

- System: Acinetobacter baumannii
- assay: Antibacterial activity against Acinetobacter baumannii ATCC 17978 after 18 hrs by microdilution broth method
- Type: functional
- conditionContext: ATCC 17978, 18 h

| structureAsSmiles | MIC (µg/mL) |
| --- | --- |
| CCNC(=N)NCCCCCCCCN(CCCCCCCCNC(=N)N)C(=O)N(CCCCCCCCNC(=N)N)CCCCCCCCNC(=N)NCC | 16 |
| CCNC(=N)NCCCCCCCCN(CCCCCCCCNC(=N)NCC)C(=O)N(CCCCCCCCNC(=N)NCC)CCCCCCCCNC(=N)NCC | 16 |
| N=C(N)NCCCCCCN(CCCCCCNC(=N)NCC1CC1)C(=O)N(CCCCCCNC(=N)NCC1CC1)CCCCCCNC(=N)NCC1CC1 | 64 |
| N=C(NCCCCCCCCN(CCCCCCCCNC(=N)NCC1CC1)C(=O)N(CCCCCCCCNC(=N)NCC1CC1)CCCCCCCCNC(=N)NCC1CC1)NCC1CC1 | 8 |
| N=C(N)NCCCCCCCCCCN(CCCCCCCCCCNC(=N)NCC1CC1)C(=O)N(CCCCCCCCCCNC(=N)N)CCCCCCCCCCNC(=N)NCC1CC1 | 64 |
| N=C(NCCCCCCCCN(CCCCCCCCNC(=N)NCc1ccccc1)C(=O)N(CCCCCCCCNC(=N)NCc1ccccc1)CCCCCCCCNC(=N)NCc1ccccc1)NCc1ccccc1 | 16 |
| N=C(N)NCCCCCCCCN(CCCCCCCCNC(=N)N)C(=O)N(CCCCCCCCNC(=N)NCC1CC1)CCCCCCCCNC(=N)NCC1CC1 | 16 |

====

Overview of recorded Papp at 5 h for various compounds
- assay: Apparent permeability of the compound after 5 hrs by PAMPA
- Format: ADME

| compound | Papp at 5 h |
| --- | --- |
| CO[C@H]1/C=C/O[C@@]2(C)Oc3c(C)c(O)c4c(O)c(c5c(nc6cc(C)ccn65)c4c3C2=O)NC(=O)/C(C)=C\C=C\[C@H](C)[C@H](O)[C@@H](C)[C@@H](O)[C@@H](C)[C@H](OC(C)=O)[C@@H]1C [RIFAXIMIN] | 0.06 ×10⁻⁶ cm/s |
| N=C(N)NCCCCCCCCN(CCCCCCCCNC(=N)NCC1CC1)C(=O)N(CCCCCCCCNC(=N)N)CCCCCCCCNC(=N)NCC1CC1 | 1.6 ×10⁻⁶ cm/s |

====

- Tested on: Acinetobacter baumannii
- assay: Antibacterial activity against Acinetobacter baumannii ATCC 17978 after 18 hrs by microdilution broth method
- Assay type: functional
- conditionContext: ATCC 17978, 18 h
# log10(MIC) annotations
outcomeMeasure: log10(MIC) (log10 of the value in µg/mL)

| structureAsSmiles | measurementTarget | log10(MIC) |
| --- | --- | --- |
| CCNC(=N)NCCCCCCN(CCCCCCNC(=N)N)C(=O)N(CCCCCCNC(=N)NCC)CCCCCCNC(=N)NCC | Acinetobacter baumannii | 2.41 |
| N=C(N)NCCCCCCN(CCCCCCNC(=N)NCC1CC1)C(=O)N(CCCCCCNC(=N)N)CCCCCCNC(=N)NCC1CC1 | Acinetobacter baumannii | 2.11 |
| N=C(N)NCCCCCCCCN(CCCCCCCCNC(=N)NCC1CC1)C(=O)N(CCCCCCCCNC(=N)N)CCCCCCCCNC(=N)NCC1CC1 | Acinetobacter baumannii | 0.90 |
| CNC(=N)NCCCCCCCCN(CCCCCCCCNC(=N)N)C(=O)N(CCCCCCCCNC(=N)N)CCCCCCCCNC(=N)NC | Acinetobacter baumannii | 0.90 |
| N=C(N)NCCCCCCCCN(CCCCCCCCNC(=N)N)C(=O)N(CCCCCCCCNC(=N)N)CCCCCCCCNC(=N)N | Acinetobacter baumannii | 1.20 |
| N=C(NCCCCCCCCN(CCCCCCCCNC(=N)NCC1CC1)C(=O)N(CCCCCCNC(=N)NCC1CC1)CCCCCCNC(=N)NCC1CC1)NCC1CC1 | Acinetobacter baumannii | 1.81 |
| CNC(=O)NC(=N)NCCCCCCCCN(CCCCCCCCNC(=N)NC(=O)NC)C(=O)N(CCCCCCCCNC(=N)NCC1CC1)CCCCCCCCNC(=N)NCC1CC1 | Acinetobacter baumannii | 0.90 |
| N=C(N)NCCCCCCCCN(CCCCCCCCNC(=N)NCc1ccccc1)C(=O)N(CCCCCCCCNC(=N)N)CCCCCCCCNC(=N)NCc1ccccc1 | Acinetobacter baumannii | 0.90 |

====

- Test system: Klebsiella pneumoniae
- assay: Antibacterial activity against Klebsiella pneumoniae isolate SI-081 after 18 hrs by microdilution broth method
- Type: functional
- conditionContext: isolate SI-081, 18 h
outcomeMeasure: MIC (µg/mL)

| structureAsSmiles | limitSign | number |
| --- | --- | --- |
| CC(C)(C)OC(=O)/N=C(/NCCCCCCCCN(CCCCCCCCN/C(=N/C(=O)OC(C)(C)C)NC(=O)OC(C)(C)C)C(=O)N(CCCCCCCCN/C(=N/C(=O)OC(C)(C)C)N(CC1CC1)C(=O)OC(C)(C)C)CCCCCCCCN/C(=N/C(=O)OC(C)(C)C)N(CC1CC1)C(=O)OC(C)(C)C)NC(=O)OC(C)(C)C | ≥ | 256 |
| N=C(N)NCCCCCCCCN(CCCCCCCCNC(=N)NCc1ccccc1)C(=O)N(CCCCCCCCNC(=N)N)CCCCCCCCNC(=N)NCc1ccccc1 | = | 8 |
| N=C(N)NCCCCCCCCN(CCCCCCCCNC(=N)NCC1CC1)C(=O)N(CCCCCCCCNC(=N)N)CCCCCCCCNC(=N)NCC1CC1 | = | 2 |
| CCNC(=N)NCCCCCCCCN(CCCCCCCCNC(=N)N)C(=O)N(CCCCCCCCNC(=N)N)CCCCCCCCNC(=N)NCC | = | 4 |
| CCNC(=N)NCCCCCCCCN(CCCCCCCCNC(=N)NCC)C(=O)N(CCCCCCCCNC(=N)NCC)CCCCCCCCNC(=N)NCC | = | 8 |
| CNC(=N)NCCCCCCCCN(CCCCCCCCNC(=N)N)C(=O)N(CCCCCCCCNC(=N)N)CCCCCCCCNC(=N)NC | = | 8 |
| N=C(NCCCCCCCCN(CCCCCCCCNC(=N)NCC1CC1)C(=O)N(CCCCCCCCNC(=N)NCC1CC1)CCCCCCCCNC(=N)NCC1CC1)NCC1CC1 | = | 4 |
